Biological target: T1, human BCMA (human, UniProt Q02223 1-54)
T1 construct: also called huBCMA; hBCMA
T1 sequence: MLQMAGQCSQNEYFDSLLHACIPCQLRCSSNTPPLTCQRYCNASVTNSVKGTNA
Assay: SPR, immobilised IgG, 37° C

binder	unit.info	T½
L3.PY/L3.KY/H2.DY (antibody, V domains shown, IgG in the assay) VH: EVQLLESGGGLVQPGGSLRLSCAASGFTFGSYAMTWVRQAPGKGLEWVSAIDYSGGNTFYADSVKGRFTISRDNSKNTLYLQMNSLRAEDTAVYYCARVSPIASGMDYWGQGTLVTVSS VL: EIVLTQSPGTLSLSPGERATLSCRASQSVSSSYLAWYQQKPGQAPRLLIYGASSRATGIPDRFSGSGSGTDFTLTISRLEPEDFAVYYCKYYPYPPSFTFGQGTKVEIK	min	18
L3.PY/L1.PS/H3.TAQ (antibody, V domains shown, IgG in the assay) VH: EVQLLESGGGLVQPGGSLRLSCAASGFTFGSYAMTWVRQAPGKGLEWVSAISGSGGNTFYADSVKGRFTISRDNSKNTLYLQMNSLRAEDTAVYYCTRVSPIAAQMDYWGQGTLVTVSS VL: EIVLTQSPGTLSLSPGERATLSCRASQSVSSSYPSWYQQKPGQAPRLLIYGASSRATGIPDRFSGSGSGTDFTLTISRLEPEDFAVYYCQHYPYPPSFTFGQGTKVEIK	min	4.7
L3.PY/L3.KF/H3.AQ (antibody, V domains shown, IgG in the assay) VH: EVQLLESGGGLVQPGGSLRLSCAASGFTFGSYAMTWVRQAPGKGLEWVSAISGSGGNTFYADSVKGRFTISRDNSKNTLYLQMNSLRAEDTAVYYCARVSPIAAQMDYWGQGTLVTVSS VL: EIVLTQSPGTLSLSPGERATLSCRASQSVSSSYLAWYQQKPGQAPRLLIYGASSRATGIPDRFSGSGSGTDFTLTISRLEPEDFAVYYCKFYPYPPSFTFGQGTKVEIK	min	5.09
L3.PY/L3.KY/P6E01 (antibody, V domains shown, IgG in the assay) VH: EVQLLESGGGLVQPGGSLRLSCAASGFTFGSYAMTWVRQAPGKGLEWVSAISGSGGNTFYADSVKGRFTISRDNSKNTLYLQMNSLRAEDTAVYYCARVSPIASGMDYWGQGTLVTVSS VL: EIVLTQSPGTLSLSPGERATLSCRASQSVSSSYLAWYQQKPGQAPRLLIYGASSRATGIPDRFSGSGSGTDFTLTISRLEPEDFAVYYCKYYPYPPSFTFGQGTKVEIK	min	10.7

Reference source for all entries: patent US20240018252A1
